Sourced from patent US6730828B1

experiment: GST activity toward herbicide fenoxaprop-ethyl (HPLC-based assay); format: biochemical; settings: recombinant wheat GST expressed in E. coli, affinity purified; ± standard error

{"molecule": "WIC 5: recombinant type I wheat GST, SEQ ID No. 9, amino acid SEQ ID No. 10 (protein, Triticum aestivum L.) MAPIKLYGMMLSANVTRVTTLLNELGLEFDFVDVDLRTGAHKHPDFLKLNPFGQIPALQDGDEVVFESRAINRYIATKYGASLLPTPSAKLEAWLEVESHHFYPPARTLVYELVIKPMLGAPTDAAEVDKNAADLAKLLDVYEAHLAAGNKYLAGDAFPLADANHMSYLFMLTKSPKADLVASRPHVKAWWEEISARPAWAKTVASIPLPPAV", "GST activity toward fenoxaprop-ethyl / nkat.mg^−1": 0.067}
{"molecule": "WIC 1: recombinant type I wheat GST, SEQ ID No. 3, amino acid SEQ ID No. 4 (protein, Triticum aestivum L.) MAAPAVKVYGWAMSPFVARALLCLEEAGVEYELVPMSREAGDHRQPDFLARNPFGQVPVLEDGDLTIFESRAVARHVLRKHKPELLGSGSPESAAMVDVWLEVEAHQHQTPAGTIVMQCILTPFLGCQRDQAAIDENAAKLTNLFDVYEARLSASRYLAGEAVSLADLSHFPFMRYFMDTEYASLVEERPHVKAWWEEFKASPAAKRVTEFMPPNFGFGKKAEK", "GST activity toward fenoxaprop-ethyl / nkat.mg^−1": 0.050}
{"molecule": "TaGST1: recombinant wheat GST from TaGST1 cDNA (SEQ ID No. 1, amino acid SEQ ID No. 2) expressed in E. coli (protein, Triticum aestivum L.) MAGEKGLVLLDFWVSPFGQRVRIALAEKGLPYEYAEEDLMAGKSDRLLRANPVHKKIPVLLHDGRAVNESLIILQYLEEAFPDAPALLPSDPYARAQARFWADYVDKKVYDCGSRLWKLKGEPQAQARAEMLDILKTLDGALGDKPFFGGDKFGFVDAAFAPFTAWFHSYERYGEFSLPEVAPKIAAWAKRCGERESVAKSLYSPDKVYDFIGLLKKKYGIE", "GST activity toward fenoxaprop-ethyl / nkat.mg^−1": 0}
{"molecule": "WIC 3: recombinant type I wheat GST, SEQ ID No. 7, amino acid SEQ ID No. 8; coding sequence identical in WIC 7 and WIC 8 (protein, Triticum aestivum L.) MAPVKLYGATLSWNVTRCVAALEEAGVQYEIVPINFGTGEHKSPDHLARNPFGQVPALQDGDLYVFESRAICKYACRKNKPELLKEGDIKESAMVDVWLEVEAHQYTAALSPILFECLIHPMLGGATDQKVIDDNLVKIKNVLAVYEAHLSKSKYLAGDFLSLADLNHVSVTLCLAATPYASLFDAYPHVKAWWTDLLARPSVQKVAALMKP", "GST activity toward fenoxaprop-ethyl / nkat.mg^−1": 0.093}
{"molecule": "ICR: recombinant safener-inducible type III wheat GST clone, SEQ ID No. 15, amino acid SEQ ID No. 16 (protein, Triticum aestivum L.) MAGDGELKLLGVWTSPFVIRVRVVLNLKSLPYEYVEESLGSKSALLLGSNPVHQSVPVLLHGGRPVNESQVIVQYIDEVWAGAGPSVLPADPYERATARFWAAYVDDKVGSAWTGMLFSCKTEEERAEAVSRAVAALETLEGAFAECSKGKAFFGGDAIGFVDVVLGGYLGWFGAIDKIIGRRLIDPARTPLLARWEERFRAADAAKGVVPDDADKMLEFLPTVLAWIAGKAK", "GST activity toward fenoxaprop-ethyl / nkat.mg^−1": 0.028}
{"molecule": "WIC 4: recombinant type I wheat GST, SEQ ID No. 11, amino acid SEQ ID No. 12; coding sequence identical in WIC 10 (protein, Triticum aestivum L.) MAPVKVFGPAMSTNVARVLVCLEEVGAEYEVVDIDFKAMEHKSPEHLVRNPFGQIPAFQDGDLLLFESRAIARYVLRKYKKNEVDLLREGDLKEAAMVDVWTEVDAHTYNPAISPIVYECSSTAHARLPTNQTVVDESLEKLKNVLEVYEARLSKHDYLAGDFVSFADLNHFPYTFYFMATPHAALFDSYPHVKAWWERIMARPAVKKLAAQMVPKKP", "GST activity toward fenoxaprop-ethyl / nkat.mg^−1": 0.012}
{"molecule": "TA 27: recombinant wheat GST from cloquintocet-mexyl-induced cDNA, SEQ ID No. 13, amino acid SEQ ID No. 14, expressed from pET 11a (protein, Triticum aestivum L.) MEPMKVYGWAVSPWMARVLVSLEEAGADYELVPMSRNGGDHRRPEHLARNPFGEIPVLEYGGLTLYQSRAIARHILRKHKPGLLGAGSLEESAMVDVWVDVDAHHLEPVLKPIVWNCIINPFVGRDVDQGLVDESVEKLKKLLEVYEARLSSNKYLAGDFVSFADLTHFSFMRYFMATEHAVVLDAYPHVKAWWKALLARPSVKKVIAGMPPDFGFGSGRIP", "GST activity toward fenoxaprop-ethyl / nkat.mg^−1": 0.036}
{"molecule": "WIC 2: recombinant type I wheat GST, SEQ ID No. 5, amino acid SEQ ID No. 6 (protein, Triticum aestivum L.) MAPAVKVYGWAVSPFVARPLLCLEEAGVEYELVSMSRAAGDHRQPDFLARNPFGQVPVLEDGDLTLFESRAIARHVLRKHKPELLGCGSPEAEAMVDVWLEVEAHQYNPAASAIVVQCIILPLLGGARDQAVVDENVAKLKKVLEVYEARLSASRYLAGDDISLADLSHFPFTRYFMETEYAPLVAELPHVNAWWEGLKARPAARKVTELMPPDLGLGKKAE", "GST activity toward fenoxaprop-ethyl / nkat.mg^−1": 0.085}
